src = PubChem BioAssay (NCI)

assay: NCI Yeast Anticancer Drug Screen. Data for the sgs1 mgt1 strain (AID 161);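 note: 0% = growth of cultures given vehicle only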; conditions: S. cerevisiae sgs1 mgt1 strain, at 50.0 µM, stronger effect = higher value
The panel holds about 79,000 compounds, 15% with a hit somewhere; the sample as a whole holds those more often.
ENDPOINT_LABEL: growth inhibition (%)
Numbers only, in %.

Quick request: growth inhibition for each listed item, please.
1. COC(=O)[CH2][Sn]([CH2]C(=O)OC)([CH]1CCCCC1)[CH]1CCCCC1
2. COc1ccc2ccc3oc([N+](=O)[O-])cc3c2c1
3. N#CC(C#N)c1ccccc1

Response:
[99.2, -23.9, 3.5]

----------
experiment: NCI Yeast Anticancer Drug Screen. Data for the bub3 strain (AID 167); details: S. cerevisiae bub3 mutant strain, at 50.0 µM
Compounds without any hit were thinned out: in the full panel of roughly 79,000, 15% have a hit. Activity calls are given as the source filed them. Cut-off read from the data, not from the text of the source: active = growth inhibition above about 70%; inactive = the rest.
Write down the outcome that applies. Available outcomes: active, inactive

Worked set:
> print(dat)
                              line.notation  label.value
1  C(=C/P(c1ccccc1)c1ccccc1)/P(c1ccccc1)c1ccccc1     inactive
2  c1ccc([As+](c2ccccc2)(c2ccccc2)c2cccc3ccccc23)cc1       active
3  CN(C)CCNC(=O)c1cc(COC(=O)N(CCCl)CCCl)ccc1[N+](=O)[O-]     inactive
4         COc1ccc(Br)c(/C=C/[N+](=O)[O-])c1       active
5                          CN(C)CCCCCCN(C)C     inactive

Okay, next one:
Query: Fill in: this test's call for C(=NC1CCCCC1)c1c[nH]c2ccccc12 is ___
Response: inactive

----------
assay: NCI Yeast Anticancer Drug Screen. Data for the bub3 strain (AID 167); conditions: S. cerevisiae bub3 mutant strain, at 50.0 µM (retest, dose inferred, filed as 5.0)
This is part of a sample that, as a whole, favours compounds with a hit. Of some 79,000 tested, about 15% had one in any assay. Activity calls are given as the source filed them. Cut-off read from the data, not from the text of the source: active = growth inhibition above about 70%; inactive = the rest.
API: response.call in active, inactive

> print(dat)
                                   compound  label.value
1  [Cl][Sn]([Cl])([c]1ccccc1)[c]1ccccc1.c1ccc2nc(-c3ccc4ccccc4n3)ccc2c1       active

Query: Assay outcome for NC1=NC(=O)N2CC12 (configuration not stated) : what was it?
Response: inactive

Query: How about this compound: O=[N+]([O-])/C=C/c1ccc(Cl)cc1
Response: active

Query: Now try O=[N+]([O-])/C=C/c1ccccc1Cl .
Response: active

Query: Next: O=C(CCl)OCc1ccccc1
Response: inactive

Query: Same question, COc1cc(/C=C(/C)[N+](=O)[O-])ccc1O this time
Response: active

Query: Another compound to check: ClC1CCCCC1[Se](Cl)(Cl)C1CCCCC1Cl (configuration not stated)
Response: active

----------
assay: NCI Yeast Anticancer Drug Screen. Data for the mlh1 rad18 strain (AID 175); conditions: S. cerevisiae mlh1 rad18 strain growth inhibition; at 50.0 µM; stronger effect = higher value
The panel holds about 79,000 compounds, 15% with a hit somewhere; the sample as a whole holds those more often.
ENDPOINT_LABEL: growth inhibition (%)
Answers are plain numbers, in %.

Some entries whose results are on file:
> print(dat)
                                   molecule     endpoint.label  quantity.unit  measured.result
1            OC(c1ccccc1)(c1ccccc1)c1ccccn1  growth inhibition              %             -6.2
2  COC1CC2C=C(C)/C=C/C=C/C(=O)NC(c3ccccc3)C/C=C/CCC(O)CC(=O)C2=C1O (stereo unspecified)  growth inhibition              %             91.7
3  CCN1C(=O)C(=C/C=C/c2ccc(OC)cc2)C(=O)N(CC)C1=S  growth inhibition              %             36.7
4  C/C(=C\COc1ccc2ccc(=O)oc2c1)C1=CC(=O)C(C)(C)O1  growth inhibition              %             12.2
5    COc1ccc(C=C2C(=O)N(C)C(=O)N(C)C2=O)cc1  growth inhibition              %             36.5

Query: GET /values?readout=growth inhibition&item= O=NNc1ccc2ccccc2n1
Response: -6.95
